# Test system: wild-type (WT) Mtb Erdman strain
# TEST_METHOD_NOTES: MABA, Mtb Erdman strain
# Type: cell-based
# TEST_SETTINGS: Mycobacterium tuberculosis, read-out: IC50 S.D. (μM) Mtb Erdman strain
Overview of reported IC50 across a group of compounds:
Provide the reading as a plain figure in µM.

Query CCCCCCC#Cc1cncc(-c2nnc(SCc3ccc(Cl)cc3)n2C2CC2)c1 [drawing 136] yields IC50 of 5.1

Query CCCCCCC#Cc1cncc(-c2nnc(SCc3ccc(Cl)cc3)n2C)c1 [drawing 129] yields IC50 of 5.4

Query CCCCCCC#Cc1cncc(-c2nnc(SCc3ccc([N+](=O)[O-])cc3)n2C)c1 [drawing 131] yields IC50 of 22

Query CCCCCCC#Cc1cncc(-c2nnc(SCc3ccc([N+](=O)[O-])o3)n2C)c1 [drawing 135] yields IC50 of 0.1

---

# Tested on: Vero TMPRSS2 cells
# TEST_METHOD_NOTES: Cytotoxicity at single concentration, CellTiter-Glo ATP quantitation
# Format: cell-based, African Green Monkey
# TEST_SETTINGS: 100 uM, 72 hours
# Experimental: Cytotoxicity assays were conducted to measure toxicity of compounds at single concentration in Vero TMPRSS2 cells by using quantitation of ATP to indicate metabolically active cells. […] The plates were shaken at a low orbital speed for 3 minutes and let rest at room temperature for 10 minutes, after which luminescence was measured using a BioTek Synergy H1 Microplate Reader H1M. […] Percent viability was calculated as follows: […]
Assign class by % Cell Viability Replicate 1: not lower than 30% means Fulfilled; lower than 30% means Not fulfilled.

Observe how each entry below is paired with its result.
- COMPOUND: "CCCCCCC#Cc1cncc(-c2nnc(SCc3ccc(Cl)c(Cl)c3)n2C)c1 [drawing 111]"
  TESTED_TARGET: "Vero TMPRSS2 cells"
  DISCRETE_LABEL: "Not fulfilled"
- COMPOUND: "CCCCCCC#Cc1cncc(-c2nnc(SCc3ccc(Cl)cc3)n2C)c1 [drawing 114]"
  TESTED_TARGET: "Vero TMPRSS2 cells"
  DISCRETE_LABEL: "Not fulfilled"
- COMPOUND: "CCCCCCC#Cc1cncc(-c2nnc(SCc3ccc(OC)cc3)n2C)c1 [drawing 99]"
  TESTED_TARGET: "Vero TMPRSS2 cells"
  DISCRETE_LABEL: "Fulfilled"
- COMPOUND: "CCCCCCC#Cc1cncc(-c2nnc(S)n2C)c1"
  TESTED_TARGET: "Vero TMPRSS2 cells"
  DISCRETE_LABEL: "Not fulfilled"
- COMPOUND: "CCCCCCC#Cc1cncc(-c2nnc(SCc3ccc(F)cc3)n2C)c1 [drawing 110]"
  TESTED_TARGET: "Vero TMPRSS2 cells"
  DISCRETE_LABEL: "Fulfilled"
- COMPOUND: "CCCCCCC#Cc1cncc(-c2nnc(SCc3ccc(Cl)cc3)n2C)c1 [drawing 116]"
  TESTED_TARGET: "Vero TMPRSS2 cells"
  DISCRETE_LABEL: "Not fulfilled"

Does the reported % Cell Viability Replicate 1 for CCCCCCC#Cc1cncc(-c2nnc(SCc3ccc(Cl)cc3)n2C2CC2)c1 [drawing 107] fall at or above the 30% mark? Fulfilled

Does the reported % Cell Viability Replicate 1 for CCCCCCC#Cc1cncc(-c2nnc(SCCn3c([N+](=O)[O-])cnc3C)n2C)c1 [drawing 121] fall at or above the 30% mark? Not fulfilled

Does the reported % Cell Viability Replicate 1 for CCCCCCC#Cc1cncc(-c2nnc(SCc3ccc(Br)cc3)n2C)c1 [drawing 103] fall at or above the 30% mark? Fulfilled
